Test: Oral bioavailability in CD Sprague-Dawley rat at 3.0 mg/kg, po
Assay type: ADME, organism-based
Settings: in vivo
Experimental Readout: bioavailability (%)
Just the number please, in %, no unit attached.

GET /values?readout=bioavailability&item= `C[C@@H]1CCCN1CCCOc1ccc(N2CCN(C(=O)c3ccc(C#N)cc3)CC2=O)cc1.O=CO`
7

Please report the recorded bioavailability for `C[C@@H]1CCCN1CCCOc1ccc(N2CCN(C(=O)c3ccc(F)cc3F)CC2=O)cc1.O=CO` .
48

Which bioavailability reading was recorded for the molecule `O=C(c1ccc(F)cc1)N1CCN(c2ccc(OCCCN3CCCCC3)cc2)C(=O)C1.O=CO` ?
61

###

Assay: Cmax in CD Sprague-Dawley rat at 1.0 mg/kg, iv
Assay type: ADME, organism-based
Parameters: dose 1 mg/kg, route intravenous
Details: in vivo
Experimental Readout: Cmax (ng/mL)
Numeric answer only, unit ng/mL assumed.

If you can, please state the reported Cmax value of `O=C(c1ccc(F)cc1)N1CCN(c2ccc(OCCCN3CCCCC3)cc2)C(=O)C1.O=CO` .
300

Cmax for `C[C@@H]1CCCN1CCCOc1ccc(N2CCN(C(=O)c3ccc(C#N)cc3)CC2=O)cc1.O=CO` ?
729

# input compound: `N#Cc1ccc(C(=O)N2CCN(c3ccc(OC4CCN(C5CCC5)CC4)cc3)C(=O)C2)cc1.O=CO` ; wanted: its Cmax
350

Data request, read-out Cmax, for `C[C@@H]1CCCN1CCCOc1ccc(N2CCN(C(=O)c3ccc(F)cc3F)CC2=O)cc1.O=CO`
291

Value lookup for Cmax; key = `O=C(c1ccc(F)cc1)N1CCN(c2ccc(OCCCN3CCCC3)cc2)C(=O)C1.O=CO`
342

For the compound shown here, `Cl.O=C(c1ccc(F)cc1)N1CCN(c2ccc(OC3CCN(C4CCC4)CC3)cc2)C(=O)C1` , give the reported Cmax.
337

###

Experiment: Tmax in Beagle dog at 1.0 mg/kg, iv
Type: ADME, organism-based, Canis lupus familiaris
Parameters: dose 1 mg/kg, route intravenous
Conditions: in vivo
Kindly supply the reported Tmax values for the records listed here.
State the value with its unit after it.

So what's the measured Tmax for this one? `N#Cc1ccc(C(=O)N2CCN(c3ccc(OC4CCN(C5CCC5)CC4)cc3)C(=O)C2)cc1.O=CO`
4.8 min

Look up Tmax for this molecule: `C[C@@H]1CCCN1CCCOc1ccc(N2CCN(C(=O)c3ccc(F)cc3F)CC2=O)cc1.O=CO`
4.8 min

// query Tmax value for entry `O=C(c1ccc(F)cc1)N1CCN(c2ccc(OCCCN3CCCCC3)cc2)C(=O)C1.O=CO`
4.8 min

###

Assay: Clearance in Beagle dog at 1.0 mg/kg, iv
Assay type: ADME, organism-based, Canis lupus familiaris
Parameters: dose 1 mg/kg, route intravenous
Conditions: in vivo
Experimental Readout: clearance (mL/min/kg)
Field format: number, assumed mL/min/kg, no unit text.

Need clearance of `N#Cc1ccc(C(=O)N2CCN(c3ccc(OC4CCN(C5CCC5)CC4)cc3)C(=O)C2)cc1.O=CO` , thanks.
15

Entry `O=C(c1ccc(F)cc1)N1CCN(c2ccc(OCCCN3CCCCC3)cc2)C(=O)C1` has what clearance?
9

Record request: clearance value, item `C[C@@H]1CCCN1CCCOc1ccc(N2CCN(C(=O)c3ccc(F)cc3F)CC2=O)cc1.O=CO`
6.5

###

Experiment: AUC in CD Sprague-Dawley rat at 1.0 mg/kg, iv
Assay type: ADME, organism-based
Parameters: dose 1 mg/kg, route intravenous
Settings: plasma
Experimental Readout: AUC (ng·h/mL)
Give the value, in units of ng·h/mL, as a plain number.

What value of AUC has been recorded for this entry: `C[C@@H]1CCCN1CCCOc1ccc(N2CCN(C(=O)c3ccc(F)cc3F)CC2=O)cc1.O=CO`
682

Look up AUC for this compound: `O=C(c1ccc(F)cc1)N1CCN(c2ccc(OCCCN3CCCC3)cc2)C(=O)C1.O=CO`
536

Consider the compound `O=C(c1ccc(F)cc1)N1CCN(c2ccc(OCCCN3CCCCC3)cc2)C(=O)C1.O=CO` and give its measured AUC.
437

Quick one: AUC of `Cl.O=C(c1ccc(F)cc1)N1CCN(c2ccc(OC3CCN(C4CCC4)CC3)cc2)C(=O)C1` ?
837

Item `C[C@@H]1CCCN1CCCOc1ccc(N2CCN(C(=O)c3ccc(C#N)cc3)CC2=O)cc1.O=CO` has what recorded AUC?
1190

Dear colleague, I am looking for the recorded AUC of the following compound: `N#Cc1ccc(C(=O)N2CCN(c3ccc(OC4CCN(C5CCC5)CC4)cc3)C(=O)C2)cc1.O=CO`
601

###

Assay: Half life in Beagle dog at 1.0 mg/kg, iv
Type: ADME, organism-based, Canis lupus familiaris
Set-up: dose 1 mg/kg, route intravenous
Details: in vivo
Can you tell me half-life for the items I'm about to list?
Report the figure in h without appending any unit label.

Give the measured half-life of `O=C(c1ccc(F)cc1)N1CCN(c2ccc(OCCCN3CCCCC3)cc2)C(=O)C1` .
4.3

Which half-life is reported for this compound? `N#Cc1ccc(C(=O)N2CCN(c3ccc(OC4CCN(C5CCC5)CC4)cc3)C(=O)C2)cc1.O=CO`
2.3

Given the compound `C[C@@H]1CCCN1CCCOc1ccc(N2CCN(C(=O)c3ccc(F)cc3F)CC2=O)cc1.O=CO` , what is its reported half-life?
4.3

###

Test: AUC in CD Sprague-Dawley rat at 2.9 mg/kg, po
Assay type: ADME, organism-based
Set-up: dose 2.9 mg/kg, route oral
Details: plasma
Experimental Readout: AUC (ng·h/mL)
Numeric only. Scale: ng·h/mL

Recorded AUC of `Cl.O=C(c1ccc(F)cc1)N1CCN(c2ccc(OC3CCN(C4CCC4)CC3)cc2)C(=O)C1` , please.
760

###

Field: Cmax. Provide a value for each of the compounds that follow.
Test: Cmax in CD Sprague-Dawley rat at 3.0 mg/kg, po
Assay type: ADME, organism-based
Design: dose 3 mg/kg, route oral
Details: in vivo
Only the number, expressed in µg/mL, is required.

// query Cmax value for entry `C[C@@H]1CCCN1CCCOc1ccc(N2CCN(C(=O)c3ccc(C#N)cc3)CC2=O)cc1.O=CO`
0.052

Which Cmax reading was recorded for the compound `CS(=O)(=O)c1ccc(C(=O)N2CCN(c3ccc(OC4CCN(C5CCC5)CC4)cc3)C(=O)C2)cc1.O=CO` ?
0.01

Fill blank: measured Cmax of the compound `C[C@@H]1CCCN1CCCOc1ccc(N2CCN(C(=O)c3ccc(F)cc3F)CC2=O)cc1.O=CO` is ____.
0.109

What does the data say about its Cmax? Entry: `N#Cc1ccc(C(=O)N2CCN(c3ccc(OC4CCN(C5CCC5)CC4)cc3)C(=O)C2)cc1.O=CO`
0.149

Data request, read-out Cmax, for `O=C(c1ccc(F)cc1)N1CCN(c2ccc(OCCCN3CCCC3)cc2)C(=O)C1.O=CO`
0.04

Any idea what Cmax was measured for `O=C(c1ccc(F)cc1)N1CCN(c2ccc(OCCCN3CCCCC3)cc2)C(=O)C1.O=CO` ?
0.155

###

For each of the molecules below, state its clearance.
Test: Clearance in CD Sprague-Dawley rat at 1.0 mg/kg, iv
Format: ADME, organism-based
Parameters: dose 1 mg/kg, route intravenous
Conditions: in vivo
Numbers only here, please. The scale is mL/min/kg.

Query (molecule): `C[C@@H]1CCCN1CCCOc1ccc(N2CCN(C(=O)c3ccc(C#N)cc3)CC2=O)cc1.O=CO` ; field requested: clearance
13

Name the reported clearance value associated with the molecule `O=C(c1ccc(F)cc1)N1CCN(c2ccc(OCCCN3CCCC3)cc2)C(=O)C1.O=CO`
31

What does the data say about its clearance? Entry: `O=C(c1ccc(F)cc1)N1CCN(c2ccc(OCCCN3CCCCC3)cc2)C(=O)C1.O=CO`
37

Could you tell me which clearance is on file for `C[C@@H]1CCCN1CCCOc1ccc(N2CCN(C(=O)c3ccc(F)cc3F)CC2=O)cc1.O=CO` ?
31

May I ask what clearance has been recorded for `Cl.O=C(c1ccc(F)cc1)N1CCN(c2ccc(OC3CCN(C4CCC4)CC3)cc2)C(=O)C1` ?
18

What measured clearance goes with `N#Cc1ccc(C(=O)N2CCN(c3ccc(OC4CCN(C5CCC5)CC4)cc3)C(=O)C2)cc1.O=CO` ?
27

###

For each entry below, report its half-life value.
Experiment: Half life in CD Sprague-Dawley rat at 1.0 mg/kg, iv
Assay type: ADME, organism-based
Set-up: dose 1 mg/kg, route intravenous
Settings: in vivo
Record the value in h, omitting the unit from your answer.

May I ask what half-life has been recorded for `C[C@@H]1CCCN1CCCOc1ccc(N2CCN(C(=O)c3ccc(F)cc3F)CC2=O)cc1.O=CO` ?
1.1

Which measured half-life value corresponds to `Cl.O=C(c1ccc(F)cc1)N1CCN(c2ccc(OC3CCN(C4CCC4)CC3)cc2)C(=O)C1` ?
2

I have this compound here, `N#Cc1ccc(C(=O)N2CCN(c3ccc(OC4CCN(C5CCC5)CC4)cc3)C(=O)C2)cc1.O=CO` , and I need its recorded half-life.
1.4

If you can, please state the reported half-life value of `O=C(c1ccc(F)cc1)N1CCN(c2ccc(OCCCN3CCCC3)cc2)C(=O)C1.O=CO` .
1.3

What value of half-life has been reported for the following compound? `C[C@@H]1CCCN1CCCOc1ccc(N2CCN(C(=O)c3ccc(C#N)cc3)CC2=O)cc1.O=CO`
1.8

I have this compound here, `O=C(c1ccc(F)cc1)N1CCN(c2ccc(OCCCN3CCCCC3)cc2)C(=O)C1.O=CO` , and I need its recorded half-life.
1.5
